These entries and their values trace back to patent US20260069689A1.

Assignment: determine reported t½ for the given binders.
studySystem: SARS-COV-2 RBD extracellular domain expressed with a C-terminal mouse IgG2a Fc (SARS-CoV-2)
protocolDetails: Biacore SPR, mAb captured on anti-hFc, 37 C
Give bare numbers, in h.

Sample answers from the record:
# input What does the data say about its t½? Entry: mAb14283 (antibody, V domains shown) VH: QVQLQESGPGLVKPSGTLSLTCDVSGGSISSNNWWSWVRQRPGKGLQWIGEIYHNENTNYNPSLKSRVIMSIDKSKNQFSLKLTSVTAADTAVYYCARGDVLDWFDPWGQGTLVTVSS VL: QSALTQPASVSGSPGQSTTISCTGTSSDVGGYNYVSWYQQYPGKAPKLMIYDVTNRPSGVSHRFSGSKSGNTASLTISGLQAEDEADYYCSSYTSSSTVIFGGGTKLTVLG
# output 2.01

# input Given the binder mAb14312 (antibody, V domains shown) VH: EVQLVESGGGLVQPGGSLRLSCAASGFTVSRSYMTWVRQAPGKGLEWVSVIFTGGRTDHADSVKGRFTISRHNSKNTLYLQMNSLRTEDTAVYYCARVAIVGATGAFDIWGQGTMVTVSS VL: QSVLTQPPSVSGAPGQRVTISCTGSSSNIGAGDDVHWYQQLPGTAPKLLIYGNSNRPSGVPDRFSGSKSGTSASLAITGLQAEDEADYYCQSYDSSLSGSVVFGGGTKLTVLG , what is its reported t½?
# output 3.32

# input Can you look up the measured t½ of mAb14286 (antibody, V domains shown) VH: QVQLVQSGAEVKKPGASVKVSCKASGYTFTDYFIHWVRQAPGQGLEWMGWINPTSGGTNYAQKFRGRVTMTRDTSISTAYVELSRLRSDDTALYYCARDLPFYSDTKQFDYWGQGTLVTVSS VL: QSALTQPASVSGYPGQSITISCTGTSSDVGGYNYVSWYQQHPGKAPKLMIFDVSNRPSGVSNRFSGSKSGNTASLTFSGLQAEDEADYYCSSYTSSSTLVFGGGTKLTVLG for me?
# output 0.365

# input Name the recorded t½ for mAb14315 (antibody, V domains shown) VH: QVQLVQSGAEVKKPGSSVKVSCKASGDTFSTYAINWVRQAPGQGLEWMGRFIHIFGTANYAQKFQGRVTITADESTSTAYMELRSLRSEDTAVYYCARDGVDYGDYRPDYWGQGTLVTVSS VL: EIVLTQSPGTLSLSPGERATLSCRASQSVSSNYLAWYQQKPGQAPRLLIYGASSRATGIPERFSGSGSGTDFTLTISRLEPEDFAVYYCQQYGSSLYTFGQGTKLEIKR .
# output 2.43

Now for another entry.
# input # t½ lookup, item mAb15151 (antibody, V domains shown) VH: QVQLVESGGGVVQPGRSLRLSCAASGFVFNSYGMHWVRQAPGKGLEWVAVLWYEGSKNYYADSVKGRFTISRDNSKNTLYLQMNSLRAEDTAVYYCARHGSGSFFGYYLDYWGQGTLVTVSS VL: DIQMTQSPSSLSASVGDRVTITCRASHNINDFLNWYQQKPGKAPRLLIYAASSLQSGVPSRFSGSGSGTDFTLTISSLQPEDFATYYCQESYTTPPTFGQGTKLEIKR
# output 0.0617
